Entry source: PubChem BioAssay (NCI)

- Tested on: HCT-15 colon
- method description: NCI tumour cell line growth inhibition, 48 h; in the data active = GI50 below about 0.43 µM; inactive = the rest
Lab note: assign the record to one of active, inactive

Here are 3 compounds together with their reported answers.
Nc1ncnc2c1c(-c1ccc(Oc3ccccc3)cc1)nn2CC1SSCC1O (centres undefined): inactive
CN(C)C1C(=O)C(C(N)=O)=C(O)C2(O)C(=O)C3=C(O)c4c(O)cccc4C(C)(O)C3CC12.[Cl][Sb]([Cl])[Cl] (centres undefined): inactive
COc1ccc([C@@]23Oc4cc(OC)cc(OC)c4[C@]2(O)[C@H](O)[C@H](C(=O)N(C)C)[C@H]3c2ccccc2)cc1: active

Ask: In this assay, the call recorded for `O=c1[nH]c2ccccc2cc1-c1nnc(Cc2ccccc2)o1` was what?
Result: inactive

Ask: In this assay, the call recorded for C/C(=C/CCC(C)[C@@H]1CC[C@]2(C)C3=C(CC[C@@]12C)[C@@]1(C)CCC(=O)C(C)(C)[C@@H]1CC3)C(=O)O (some centres undefined) was what?
Result: inactive

Ask: In this assay, the call recorded for NC1=NC(c2ccccc2Cl)c2c(n[nH]c2N)N1 (centres undefined) was what?
Result: inactive

Ask: In this assay, the call recorded for `CCCCCCCCCCCCCC(=O)O[C@H]1CC[C@H](NC(=O)[C@H](OC)[C@H](O)[C@@H](O)[C@H](O)/C=C/C(C)C)C(=O)N(C)C1` was what?
Result: active

Ask: In this assay, the call recorded for `C/C(=N\NC(=S)N1CCC1)c1ccccn1` was what?
Result: active

Ask: In this assay, the call recorded for `COC(=O)c1ccc(NC(N)=NCCC(C)(C)c2ccc(C(F)(F)F)cc2)nc1` was what?
Result: inactive
